B1: CPEB3 Ribozyme (parent)
chain: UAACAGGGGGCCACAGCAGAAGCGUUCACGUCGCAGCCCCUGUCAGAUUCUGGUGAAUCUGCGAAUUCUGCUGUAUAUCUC

variants of: B1; assay: self-cleavage, relative activity (ratio to wild type); higher = more cleavage; in vitro, sequencing
Hi all, reminder that labels come from self-cleavage, split as A (below 0.3), B (0.3 to below 0.4), C (0.4 or more)

> print(dat)
    mutations  class
 1  U51C C62U      B
 2   G7A U48A      B
 3  G24C U31A      A
 4   G6U U49A      B
 5  A15U A77G      C
 6  C32U A65U      A
 7  C11A A28U      C
 8  A77G U80C      C
 9  C38A U51C      A
10   U1A A21U      A
11  U43A U67C      B
